biological target: Cys-HLA (Staphylococcus aureus)
metric name: pKd
Lab note: report pKd as minus log10 of the concentration in molar units, number only.

// recorded pKd for Ma8D07 (VHH) VHH: QVQLVESGGGLVQPGGSLRLSCAASESIYKLNAMGWYRQAPGKELELVTTISSGGSTFYTDPVKGRFTISTDNAKNTVYLQMRSLKPEDTAMYYCAANPTYNHYSARGQGTQVTVSS : 9.10

Note to self: pKd recorded for Ma31A12 (VHH) VHH: QVQLVESGGGLVQPGGSLRLSCAASAASGFTLDLYTIAWFLQAPGKEREGVSAISLSDEITYYSDAVKGRFTISRDSAKNTVFLQMDRLKPEDTGVYYCAIGAFDFILKEVDADYWGQGTQVTVSS was 10.19

Given item Ma8D08 (VHH) VHH: QVQLVESGGGFVQAGGSLRLSCAASESIYKLNAMGWYRQAPGKELELVTTISSGGSTFYTDPVKGRFTISTDNAKNTVYLQMRSLKPEDTAMYYCAANPTYNHYSARGQGTQVTVSS , the value recorded as its pKd is 9.00
